Provide the recorded log10 IC50 for the entries that follow.
System: L1210
Method Notes: Antiproliferative activity against mouse L1210 cells after 48 hrs by sulforhodamine B assay
Format: functional, cell-based
Measurement Conditions: L1210, 48 h
Scale type: logarithmic (base 10). Underlying IC50 unit: nM.

// log10 IC50 value for "COc1ccc(OS(=O)(=O)c2ccc(N3CCNC3=O)cc2)cc1" : 2.40

// log10 IC50 value for "O=C1NCCN1c1ccc(S(=O)(=O)Oc2ccc(F)cc2)cc1" : 2.15

// log10 IC50 value for "O=C1NCCN1c1ccc(S(=O)(=O)Oc2c(F)cccc2F)cc1" : 1.83

// log10 IC50 value for "Cc1ccc(C)c(OS(=O)(=O)c2ccc(N3CCNC3=O)cc2)c1" : 1.32

// log10 IC50 value for "O=C1NCCN1c1ccc(S(=O)(=O)Oc2cccc(Cl)c2)cc1" : 1.23

// log10 IC50 value for "O=C1NCCN1c1ccc(S(=O)(=O)Oc2cccc(I)c2)cc1" : 1.28

// log10 IC50 value for "COc1cc(OS(=O)(=O)c2ccc(N3CCNC3=O)cc2)cc(OC)c1OC" : 0.73

// log10 IC50 value for CC[C@]1(O)C[C@@H]2CN(CCc3c([nH]c4ccccc34)[C@@](C(=O)OC)(c3cc4c(cc3OC)N(C)[C@H]3[C@@](O)(C(=O)OC)[C@H](OC(C)=O)[C@]5(CC)C=CCN6CC[C@]43[C@@H]65)C2)C1 [VINBLASTINE] : -0.80

// log10 IC50 value for "COc1cc(OC)cc(OS(=O)(=O)c2ccc(N3CCNC3=O)cc2)c1" : 0.81

---

System: HT-29
Method Notes: Antiproliferative activity against human HT-29 cells after 48 hrs by sulforhodamine B assay
Type: functional, cell-based
Measurement Conditions: HT-29, 48 h
Checkbox rule: IC50 lower than 70 nM = YES; IC50 not lower than 70 nM = NO.

**Q:** is_below(IC50, 70 nM) for "O=C1NCCN1c1ccc(S(=O)(=O)Oc2ccccc2Cl)cc1" ?
**A:** YES

**Q:** is_below(IC50, 70 nM) for "O=C(NCCCl)Nc1cccc(CCCCCO)c1" ?
**A:** NO

**Q:** is_below(IC50, 70 nM) for "O=C1NCCN1c1ccc(S(=O)(=O)Oc2cc(F)c(F)c(F)c2)cc1" ?
**A:** NO

**Q:** is_below(IC50, 70 nM) for "O=C1NCCN1c1ccc(S(=O)(=O)Oc2c(Cl)cc(Cl)cc2Cl)cc1" ?
**A:** NO

**Q:** is_below(IC50, 70 nM) for "COc1ccccc1OS(=O)(=O)c1ccc(N2CCNC2=O)cc1" ?
**A:** NO

**Q:** is_below(IC50, 70 nM) for "O=C1NCCN1c1ccc(S(=O)(=O)Oc2cc(Cl)c(Cl)cc2Cl)cc1" ?
**A:** YES

**Q:** is_below(IC50, 70 nM) for "O=C1NCCCN1c1ccc(S(=O)(=O)Oc2ccc(F)cc2)cc1" ?
**A:** NO

**Q:** is_below(IC50, 70 nM) for "Cc1cc(OS(=O)(=O)c2ccc(N3CCNC3=O)cc2)ccc1[N+](=O)[O-]" ?
**A:** NO

**Q:** is_below(IC50, 70 nM) for "O=C1NCCN1c1ccc(S(=O)(=O)Oc2cccc(F)c2)cc1" ?
**A:** YES

**Q:** is_below(IC50, 70 nM) for "Cc1cc(C)c(OS(=O)(=O)c2ccc(N3CCNC3=O)cc2)cc1C" ?
**A:** YES

---

Test system: HT-29
Method Notes: Antiproliferative activity against human HT-29 cells after 48 hrs by sulforhodamine B assay
Format: functional, cell-based
Measurement Conditions: HT-29, 48 h
Provide the recorded IC50 for the entries that follow.
Entry rule: numbers only, all in nM.

Item "CCCOc1ccc(OS(=O)(=O)c2ccc(N3CCNC3=O)cc2)cc1" was tested on HT-29; the reported IC50 is 110

Item "CCCc1ccccc1OS(=O)(=O)c1ccc(N2CCNC2=O)cc1" was tested on HT-29; the reported IC50 is 76

Item "Cc1cccc(OS(=O)(=O)c2ccc(N3CCNC3=O)cc2)c1" was tested on HT-29; the reported IC50 is 76

Item "O=C1NCCN1c1ccc(S(=O)(=O)Oc2ccc(Cl)cc2)cc1" was tested on HT-29; the reported IC50 is 87

Item "COc1ccc(OS(=O)(=O)c2ccc(N3CCNC3=O)cc2)cc1OC" was tested on HT-29; the reported IC50 is 67

---

Tested on: M21
Method Notes: Cell cycle arrest in human M21 cells assessed as accumulation at G0/G1 phase at 5 times IC50 after 24 hrs using propidium iodide staining by flow cytometric analysis (reference value: 61%)
Format: functional
Provide the recorded Activity for the entries that follow.
Entry rule: numbers only, all in %.

Item "CCOc1cccc(OS(=O)(=O)c2ccc(N3CCNC3=O)cc2)c1" was tested on M21; the reported Activity is 2

Item "O=C1NCCN1c1ccc(S(=O)(=O)Oc2ccccc2Cl)cc1" was tested on M21; the reported Activity is 2

Item "O=C1NCCN1c1ccc(S(=O)(=O)Oc2cc(Cl)c(Cl)cc2Cl)cc1" was tested on M21; the reported Activity is 1

Item "COc1ccc(OS(=O)(=O)c2ccc(N3CCNC3=O)cc2)cc1" was tested on M21; the reported Activity is 0

Item "COc1cc(OS(=O)(=O)c2ccc(N3CCNC3=O)cc2)cc(OC)c1OC" was tested on M21; the reported Activity is 1

---

Test system: CHO-TAX 5-6
Method Notes: Resistant ratio of IC50 for paclitaxel-resistant CHO-TAX 5-6 cells to IC50 for CHO cells
Assay type: functional, Cricetulus griseus
Checkbox rule: Ratio IC50 lower than 0.4 = Y; Ratio IC50 not lower than 0.4 = N.

**Q:** is_below(Ratio IC50, 0.4) for "O=C1NCCN1c1ccc(S(=O)(=O)Oc2cccc(I)c2)cc1" ?
**A:** N

**Q:** is_below(Ratio IC50, 0.4) for "COc1cc(OC)cc(OS(=O)(=O)c2ccc(N3CCNC3=O)cc2)c1" ?
**A:** N

**Q:** is_below(Ratio IC50, 0.4) for "O=C1NCCN1c1ccc(S(=O)(=O)Oc2cc(Cl)cc(Cl)c2)cc1" ?
**A:** Y

**Q:** is_below(Ratio IC50, 0.4) for "O=C1NCCN1c1ccc(S(=O)(=O)Oc2c(F)cccc2F)cc1" ?
**A:** N

**Q:** is_below(Ratio IC50, 0.4) for "CCOc1cccc(OS(=O)(=O)c2ccc(N3CCNC3=O)cc2)c1" ?
**A:** Y

**Q:** is_below(Ratio IC50, 0.4) for "O=C1NCCN1c1ccc(S(=O)(=O)Oc2ccc(F)cc2)cc1" ?
**A:** Y

**Q:** is_below(Ratio IC50, 0.4) for "O=C1NCCN1c1ccc(S(=O)(=O)Oc2cccc(Cl)c2)cc1" ?
**A:** N

**Q:** is_below(Ratio IC50, 0.4) for "Cc1ccc(C)c(OS(=O)(=O)c2ccc(N3CCNC3=O)cc2)c1" ?
**A:** N

---

Test system: M21
Method Notes: Cell cycle arrest in human M21 cells assessed as accumulation at S phase at 5 times IC50 after 24 hrs using propidium iodide staining by flow cytometric analysis (reference value: 30%)
Format: functional
Provide the recorded Activity for the entries that follow.
Entry rule: numbers only, all in %.

Item "CCOc1cccc(OS(=O)(=O)c2ccc(N3CCNC3=O)cc2)c1" was tested on M21; the reported Activity is 20

Item "O=C1NCCN1c1ccc(S(=O)(=O)Oc2ccc(F)c(F)c2)cc1" was tested on M21; the reported Activity is 26

Item "Cc1cc(OS(=O)(=O)c2ccc(N3CCNC3=O)cc2)cc(C)c1C" was tested on M21; the reported Activity is 0

Item "COc1ccc(/C=C\c2cc(OC)c(OC)c(OC)c2)cc1O" was tested on M21; the reported Activity is 0

Item "O=C1NCCN1c1ccc(S(=O)(=O)Oc2c(F)cccc2F)cc1" was tested on M21; the reported Activity is 33

Item "O=C1NCCN1c1ccc(S(=O)(=O)Oc2cc(F)cc(F)c2)cc1" was tested on M21; the reported Activity is 29

Item "Cc1cccc(OS(=O)(=O)c2ccc(N3CCNC3=O)cc2)c1C" was tested on M21; the reported Activity is 32

Item "O=C(NCCCl)Nc1cccc(CCCCCO)c1" was tested on M21; the reported Activity is 11

Item "COc1ccc(OS(=O)(=O)c2ccc(N3CCNC3=O)cc2)cc1OC" was tested on M21; the reported Activity is 19

Item "O=C1NCCN1c1ccc(S(=O)(=O)Oc2cccc(Cl)c2)cc1" was tested on M21; the reported Activity is 19

Item "Cc1cc(C)c(OS(=O)(=O)c2ccc(N3CCNC3=O)cc2)cc1C" was tested on M21; the reported Activity is 20

Item "CCCc1cccc(OS(=O)(=O)c2ccc(N3CCNC3=O)cc2)c1" was tested on M21; the reported Activity is 25

Item "COc1cccc(OS(=O)(=O)c2ccc(N3CCNC3=O)cc2)c1" was tested on M21; the reported Activity is 1
